The following molecules are shown together with reported inhibition values.
Target: Inhibitor of nuclear factor kappa-B kinase subunit beta (Homo sapiens) (UniProt O14920);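 note: reported as mean inhibition, from the GSK PKIS screening set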
Sequence (O14920 whole entry): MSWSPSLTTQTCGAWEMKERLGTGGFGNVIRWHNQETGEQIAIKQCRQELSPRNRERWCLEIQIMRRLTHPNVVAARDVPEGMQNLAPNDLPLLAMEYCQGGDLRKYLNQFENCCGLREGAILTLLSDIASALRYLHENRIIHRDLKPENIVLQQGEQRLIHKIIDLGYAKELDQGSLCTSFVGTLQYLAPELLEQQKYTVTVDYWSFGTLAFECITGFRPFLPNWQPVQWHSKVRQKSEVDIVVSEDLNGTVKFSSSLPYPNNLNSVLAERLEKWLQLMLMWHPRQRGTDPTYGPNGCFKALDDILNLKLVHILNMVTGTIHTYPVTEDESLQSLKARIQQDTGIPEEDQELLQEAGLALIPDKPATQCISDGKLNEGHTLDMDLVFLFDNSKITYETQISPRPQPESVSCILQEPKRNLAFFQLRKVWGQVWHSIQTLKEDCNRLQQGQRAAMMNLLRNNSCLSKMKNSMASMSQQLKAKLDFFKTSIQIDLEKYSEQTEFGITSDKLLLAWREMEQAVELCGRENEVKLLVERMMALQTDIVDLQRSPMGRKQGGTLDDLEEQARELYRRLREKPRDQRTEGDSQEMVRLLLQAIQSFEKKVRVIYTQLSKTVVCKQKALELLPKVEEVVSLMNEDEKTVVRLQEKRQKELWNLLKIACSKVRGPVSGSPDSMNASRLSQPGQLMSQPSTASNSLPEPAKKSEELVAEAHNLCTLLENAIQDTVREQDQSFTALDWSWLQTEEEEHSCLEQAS
Conditions: at 1 µM
Measure: inhibition (%)

>>> measured("C[C@@H](Oc1cc(-n2cnc3ccc(OCC4CCN(C)CC4)cc32)sc1C(N)=O)c1ccccc1Cl")
3.37
>>> measured("O=C1Nc2ccccc2/C1=C/Nc1ccc(-n2cncn2)cc1")
11.4
>>> measured("Clc1ccc(CNc2nccc(-c3cnn4ncccc34)n2)cc1")
0.32
>>> measured("NC(=O)c1ccc(Oc2nccc(-c3c(-c4ccc(F)cc4)ncn3C3CCNCC3)n2)cc1")
6.83
>>> measured("C[C@@H](Oc1cc(-n2cnc3ccc(OC4CCN(C)CC4)cc32)sc1C(N)=O)c1ccccc1Cl")
4.96

src = ChEMBL document CHEMBL1961873
